Assignment: determine reported activation at 10 µM for the given compounds.
Target: human Nav1.1 (Homo sapiens, UniProt P35498)
Construct: host or cells: HEK293
Assay: Amplification of Nav1.1-derived voltage-dependent sodium current (Nav1.1 current), cell line stably expressing human Nav1.1, automated patch clamp
Type: cell-based
Settings: 10 μmol/L compound (Test Result 5); read-out: Nav1.1 current amplification rate (%)
Could you give the number and then its unit, please?

>>> value_reported("CC1CCN(c2ccc(=O)n(CC(=O)Nc3ccc(C#N)cc3)n2)CC1")
"246%"
>>> value_reported("N#Cc1ccsc1-c1ccc(=O)n(CC(=O)Nc2ccn3ncnc3c2)n1")
"24%"
>>> value_reported("CC1(C)CCN(c2ccc(=O)n(CC(=O)Nc3ccc(C#N)cc3)n2)CC1")
"148%"
>>> value_reported("CC1CC=C(c2ccc(=O)n(CC(=O)NC3CCn4ccnc4C3)n2)CC1 (centres unmarked)")
"22%"

// activation at 10 µM value for CC1(C)CCC(c2ccc(=O)n(CC(=O)Nc3ccc(C#N)cc3)n2)CC1 : 174%

* * *

Target: human Nav1.1 (Homo sapiens, UniProt P35498)
Construct: host or cells: HEK293
Assay: Amplification of Nav1.1-derived voltage-dependent sodium current (Nav1.1 current), cell line stably expressing human Nav1.1, automated patch clamp
Format: cell-based
Conditions: 10 μmol/L compound (Test Result 5)
ATTRIBUTE MEASURED: Nav1.1 current amplification rate (%)
One number for each entry, in %.

Some solved entries appear below for comparison.
>>> value_reported("N#Cc1ccc(NC(=O)Cn2nc(N3CCC4(CC4)C3)ccc2=O)cc1 [Example 25]")
163
>>> value_reported("N#Cc1ccc(NC(=O)Cn2nc(N3CCCC(C(N)=O)C3)ccc2=O)cc1 (stereo not shown) [Example 8]")
4
>>> value_reported("N#Cc1ccc(NC(=O)Cn2nc(C3CCC(F)(F)CC3)ccc2=O)cc1 [Example 47]")
11

Now for the molecule whose Nav1.1 current amplification rate (%) we want.
// Nav1.1 current amplification rate (%) value for N#Cc1ccc(NC(=O)Cn2nc(N3CCC4(CCCC4)C3)ccc2=O)cc1 [Example 24] : 286

* * *

Target: human Nav1.1 (Homo sapiens, UniProt P35498)
Construct: host or cells: HEK293
Assay: Amplification of Nav1.1-derived voltage-dependent sodium current (Nav1.1 current), cell line stably expressing human Nav1.1, automated patch clamp
Assay type: cell-based
Settings: concentration of each compound 1 μmol/L (Test Result 6); read-out: Nav1.1 current amplification rate (%)
Assignment: determine reported activation at 1 µM for the given molecules.
Give bare numbers, in %.

>>> value_reported("O=C(Cn1nc(N2CCC3(CCC3)CC2)ccc1=O)Nc1ccn2ncnc2c1")
50
>>> value_reported("CC1(C)CCN(c2ccc(=O)n(CC(=O)Nc3ccn4ncnc4c3)n2)CC1")
29
>>> value_reported("CC1(C)CC=C(c2ccc(=O)n(CC(=O)Nc3ccn4ncnc4c3)n2)C1")
37
>>> value_reported("Cc1ccc(Oc2ccc(=O)n(CC(=O)N3CCc4c(-c5ccnnc5)cccc43)n2)cc1")
43

Give me activation at 1 µM for each of these molecules, listed below.
1. O=C(Cn1nc(C2=CCCCC2)ccc1=O)N1CCc2c(CN3CCOCC3)cccc21
2. O=C(Cn1nc(N2CCC3(CCC3)C2)ccc1=O)Nc1ccn2ncnc2c1

Output:
135
33

Give me activation at 1 µM for each of these molecules, listed below.
1. CC1CCN(c2ccc(=O)n(CC(=O)Nc3ccn4ncnc4c3)n2)CC1
2. O=C(Cn1nc(N2CCC3(CCC3)C2)ccc1=O)Nc1ccc2cncnc2c1

Output:
1: 34; 2: 214

* * *

Assignment: determine reported Nav1.1 current amplification rate (%) for the given molecules.
Biological target: human Nav1.1 (Homo sapiens, UniProt P35498)
Construct: host or cells: HEK293
Assay: Amplification of Nav1.1-derived voltage-dependent sodium current (Nav1.1 current), cell line stably expressing human Nav1.1, automated patch clamp
Assay type: cell-based
Conditions: 10 μmol/L compound; change of the area under the curve of Nav1.1 current (Test Result 1)
One number for each entry, in %.

Some solved entries appear below for comparison.
>>> value_reported("CC1CC=C(c2ccc(=O)n(CC(=O)N3CCc4c3ccnc4Cl)n2)CC1 (racemic) [Example 247]")
53
>>> value_reported("COc1cc(C2=CCC(C(F)(F)F)CC2)nn(CC(=O)N2CCc3c(N4CCOCC4)cccc32)c1=O (racemic) [Example 474]")
235
>>> value_reported("COc1cc(=O)n(CC(=O)N2CCN(c3cncc(F)c3)CC2)nc1C1=CCC(C)(C)CC1 [Example 490]")
469
>>> value_reported("CC1CC=C(c2ccc(=O)n(CC(=O)N3CC(C)N(c4cccnc4)C(C)C3)n2)CC1 (centres unmarked) [Example 416]")
383
>>> value_reported("CC1CCN(c2ccc(=O)n(CC(=O)Nc3cncc(C(F)(F)F)c3)n2)CC1 [Example 61]")
77
>>> value_reported("Cc1nc2cc(NC(=O)Cn3nc(N4CCC(C)CC4)ccc3=O)ccc2o1 [Example 69]")
137
>>> value_reported("CC1CCN(c2ccc(=O)n(CC(=O)Nc3ccc4ncoc4c3)n2)CC1 [Example 73]")
92
>>> value_reported("CC1CC=C(c2ccc(=O)n(CC(=O)Nc3cccc4nccn34)n2)CC1 (racemic) [Example 255]")
32
>>> value_reported("CC1(C)CC=C(c2ccc(=O)n(CC(=O)N3CCN(c4cncc(F)c4)CC3)n2)CC1 [Example 444]")
292
>>> value_reported("CCc1nc2cc(NC(=O)Cn3nc(N4CCC(C)CC4)ccc3=O)ccc2o1 [Example 97]")
296

Give me Nav1.1 current amplification rate (%) for each of these molecules, listed below.
1. CC1CCN(c2ccc(=O)n(CC(=O)Nc3ccc(C(F)(F)F)nc3)n2)CC1 [Example 59]
2. COc1cc(C2=CCC(C(F)(F)F)CC2)nn(CC(=O)N2CCN(c3cncc(F)c3)CC2)c1=O (racemic) [Example 482]
3. O=C(Cn1nc(C2=CCC(F)(F)CC2)ccc1=O)N1CCc2c(N3CCOCC3)cccc21 [Example 469]
4. COc1cc(-c2cc(Cl)cs2)nn(CC(=O)N2CCc3c(N4CCOCC4)cccc32)c1=O [Example 479]
5. Cc1noc2ccc(NC(=O)Cn3nc(N4CCC(C)CC4)ccc3=O)cc12 [Example 70]
6. O=C(Cn1nc(C2=CCCCC2)ccc1=O)Nc1ccn2ccnc2c1 [Example 458]
7. Cc1ccc(-c2ccc(=O)n(CC(=O)N3CCc4cc(N5CCOCC5)ccc43)n2)cc1 [Example 158]

Output:
180
219
243
420
68
24
122

* * *

Assignment: determine reported activation at 3 µM for the given molecules.
Biological target: human Nav1.5 (Homo sapiens, UniProt Q14524)
Construct: expressed in transfected cells; host or cells: CHO-K1 (T-REx System, ThermoFisher Scientific)
Sequence (Q14524 1-2015 isoform Q14524-2): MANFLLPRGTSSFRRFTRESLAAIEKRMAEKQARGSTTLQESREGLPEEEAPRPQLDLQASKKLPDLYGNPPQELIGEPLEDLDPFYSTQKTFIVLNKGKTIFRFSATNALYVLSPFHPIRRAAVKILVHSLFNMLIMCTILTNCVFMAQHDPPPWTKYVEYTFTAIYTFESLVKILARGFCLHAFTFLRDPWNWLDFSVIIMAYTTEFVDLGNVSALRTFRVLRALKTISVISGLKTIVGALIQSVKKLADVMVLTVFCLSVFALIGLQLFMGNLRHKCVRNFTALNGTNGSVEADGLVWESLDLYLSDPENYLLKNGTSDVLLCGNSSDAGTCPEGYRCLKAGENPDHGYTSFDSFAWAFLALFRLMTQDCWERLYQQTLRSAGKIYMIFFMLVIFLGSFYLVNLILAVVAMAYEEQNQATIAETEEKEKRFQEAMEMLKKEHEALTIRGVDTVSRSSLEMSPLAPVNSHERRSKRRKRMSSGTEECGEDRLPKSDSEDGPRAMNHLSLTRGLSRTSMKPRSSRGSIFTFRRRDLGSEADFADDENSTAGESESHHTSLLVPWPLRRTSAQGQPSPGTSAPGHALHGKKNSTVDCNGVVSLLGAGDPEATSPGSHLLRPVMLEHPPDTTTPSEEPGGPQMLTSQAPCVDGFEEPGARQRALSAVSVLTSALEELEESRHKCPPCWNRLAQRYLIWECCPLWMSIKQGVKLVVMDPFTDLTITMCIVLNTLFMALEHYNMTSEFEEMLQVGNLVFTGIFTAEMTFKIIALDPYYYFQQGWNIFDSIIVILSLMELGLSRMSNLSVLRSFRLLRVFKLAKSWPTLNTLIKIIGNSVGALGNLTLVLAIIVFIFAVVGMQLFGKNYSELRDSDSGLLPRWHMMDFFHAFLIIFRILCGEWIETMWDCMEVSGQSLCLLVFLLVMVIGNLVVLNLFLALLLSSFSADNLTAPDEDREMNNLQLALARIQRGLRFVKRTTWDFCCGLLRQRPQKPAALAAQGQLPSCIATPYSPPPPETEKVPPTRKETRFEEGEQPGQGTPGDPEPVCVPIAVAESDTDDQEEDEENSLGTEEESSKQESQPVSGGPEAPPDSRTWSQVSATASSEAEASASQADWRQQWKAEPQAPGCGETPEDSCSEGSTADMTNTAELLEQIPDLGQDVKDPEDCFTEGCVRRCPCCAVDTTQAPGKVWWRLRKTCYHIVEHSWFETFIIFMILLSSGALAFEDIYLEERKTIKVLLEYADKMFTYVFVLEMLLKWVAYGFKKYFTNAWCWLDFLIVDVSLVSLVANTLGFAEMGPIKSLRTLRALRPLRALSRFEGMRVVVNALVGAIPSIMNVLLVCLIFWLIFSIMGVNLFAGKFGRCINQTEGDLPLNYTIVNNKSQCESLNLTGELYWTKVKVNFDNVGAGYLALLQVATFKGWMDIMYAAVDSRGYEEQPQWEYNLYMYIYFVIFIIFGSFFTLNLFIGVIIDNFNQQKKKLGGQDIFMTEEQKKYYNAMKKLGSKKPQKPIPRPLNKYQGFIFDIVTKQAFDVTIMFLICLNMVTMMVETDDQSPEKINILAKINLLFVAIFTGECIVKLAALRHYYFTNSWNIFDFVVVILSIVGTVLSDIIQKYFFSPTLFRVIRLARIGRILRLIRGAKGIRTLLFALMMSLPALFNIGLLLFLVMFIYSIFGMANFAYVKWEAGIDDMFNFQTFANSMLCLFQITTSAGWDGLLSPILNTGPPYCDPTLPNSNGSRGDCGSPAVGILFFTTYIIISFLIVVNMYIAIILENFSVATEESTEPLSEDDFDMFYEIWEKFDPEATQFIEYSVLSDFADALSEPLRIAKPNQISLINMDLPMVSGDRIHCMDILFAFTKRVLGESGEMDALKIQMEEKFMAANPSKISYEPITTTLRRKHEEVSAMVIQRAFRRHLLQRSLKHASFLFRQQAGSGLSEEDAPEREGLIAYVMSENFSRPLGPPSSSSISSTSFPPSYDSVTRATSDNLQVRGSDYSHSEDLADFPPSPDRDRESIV
Experiment: Amplification of Nav1.5-derived voltage-dependent sodium current (Nav1.5 current), cell line stably expressing human Nav1.5, automated patch clamp
Format: cell-based
Conditions: compound 3 μmol/L; CHO-K1 stably expressing human Nav1.5; read-out: Nav1.5 current amplification rate (%)
Excerpt: Test 2: Evaluation of the Amplification in Nav1.5-Derived Voltage-Dependent Sodium Current (Nav1.5 Current) by Using a Cell Line Stably Expressing Human Nav1.5 A CHO-K1 cell line (Chinese hamster ovary) stably expressing human Nav1.5 (Gene Bank Accession No: P000326.2) was obtained by using purchased T-Rex System (ThermoFisher Scientific, USA), and used for the present test. […]
Give bare numbers, in %.

>>> value_reported("COc1nc2cc(NC(=O)Cn3nc(C4=CCC(C)(C)CC4)c(OC)cc3=O)ccc2o1")
22
>>> value_reported("COc1cc(=O)n(CC(=O)Nc2ccc3oc(C(F)F)nc3c2)nc1C1=CCC(C)(C)CC1")
20
>>> value_reported("COc1cc(N2CCC3(CCC3)C2)nn(CC(=O)N2CCc3c(N4CCOCC4)cccc32)c1=O")
17
>>> value_reported("CC1CCN(c2ccc(=O)n(CC(=O)Nc3cccc(-c4cnc[nH]4)c3)n2)CC1")
0
>>> value_reported("COc1ccc(N2CCN(C(=O)Cn3nc(C4=CCC(C(F)(F)F)CC4)ccc3=O)CC2)cn1 (centres unmarked)")
6
>>> value_reported("COc1ncc(C2=CCN(C(=O)Cn3nc(C4=CCC(C(F)(F)F)CC4)ccc3=O)CC2)cn1 (centres unmarked)")
7
>>> value_reported("COc1nc2cc(NC(=O)Cn3nc(C4=CCC(C)(C)CC4)c(OC)cc3=O)cc(F)c2o1")
26

Now for the molecule whose activation at 3 µM we want.
Record CC1CC=C(c2ccc(=O)n(CC(=O)Nc3ccc4oc(N(C)C)nc4c3)n2)CC1 (centres unmarked) ; system human Nav1.5 (Homo sapiens, UniProt Q14524); activation at 3 µM = 21

This collection of values is drawn from patent US20220347175A1.
